# assay_text: Microsomal stability (MIC), mouse
# Type: in vitro ADME, mouse (CD-1)
# measurement_parameters: CD-1; mouse liver microsomes; read-out: Microsome stability (mouse); in vitro T1/2
Overview of recorded half-life at 1 μM for various compounds
measurement_type: half-life at 1 μM (min)

molecule_smiles=CC1(C)CC(=O)C2=C(C1)Nc1n[nH]c(C3CC3)c1C21CN(S(=O)(=O)CC2CC2)C1 measurement_type="half-life at 1 μM" reported=0.97
molecule_smiles=Cc1[nH]nc2c1C1(CN(S(=O)(=O)CC3CC3)C1)C1=C(CC(C)(C)CC1=O)N2 measurement_type="half-life at 1 μM" reported=6.49
molecule_smiles=COc1cncc(F)c1-c1cccc([C@]2(C)C3=C(CC(C)(C)CC3=O)Nc3n[nH]c(CC(C)(C)C)c32)c1 measurement_type="half-life at 1 μM" reported=8.59
